Catalogue of IC50 readings, one per entry.
Molecular target: IRAK4 (Homo sapiens (Human), UniProt Q9NWZ3)
Sequence (Q9NWZ3 whole entry): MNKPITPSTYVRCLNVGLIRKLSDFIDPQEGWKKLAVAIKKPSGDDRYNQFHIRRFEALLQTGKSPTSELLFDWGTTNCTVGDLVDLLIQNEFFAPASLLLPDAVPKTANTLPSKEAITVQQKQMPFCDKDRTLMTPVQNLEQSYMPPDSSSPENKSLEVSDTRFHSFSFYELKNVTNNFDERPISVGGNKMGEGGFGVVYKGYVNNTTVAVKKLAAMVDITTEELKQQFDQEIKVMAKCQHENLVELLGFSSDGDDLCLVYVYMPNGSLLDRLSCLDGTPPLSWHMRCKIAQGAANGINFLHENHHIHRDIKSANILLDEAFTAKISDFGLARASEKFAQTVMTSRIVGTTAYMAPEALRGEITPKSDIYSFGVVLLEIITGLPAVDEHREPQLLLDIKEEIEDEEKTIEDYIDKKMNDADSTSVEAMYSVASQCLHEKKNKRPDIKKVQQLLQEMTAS
Experiment: IRAK4 kinase activity, IMAP fluorescence polarization assay
Assay type: biochemical
Settings: 100 μM ATP; read-out: IC50
Please state the figure in nM; there is no need to write the unit.

Before answering, review these 3 worked examples.
[
  {
    "compound": "CC1CN(c2nc(N[C@@H]3CCCNC3)c(-c3nc4ccccc4s3)c(=O)[nH]2)CC(C)O1 (stereo partly shown)",
    "readout-units": "nM",
    "IC50": 300
  },
  {
    "compound": "O=c1[nH]c(N2CCOCC2)nc(NCCNCCO)c1-c1nc2ccccc2s1",
    "readout-units": "nM",
    "IC50": 640
  },
  {
    "compound": "O=c1[nH]c(C2CCN(C3CCOC3)CC2)nc(N[C@@H]2CCCNC2)c1-c1nc2ccccc2s1 (stereo partly shown)",
    "readout-units": "nM",
    "IC50": 180
  }
]

Okay, now this compound:
IC50 measured on CC1CC(C)CN(c2nc(N[C@@H]3CCCNC3)c(-c3nc4ccccc4s3)c(=O)[nH]2)C1 (stereo partly shown) = 570

* * *

Target: IRAK4 (Homo sapiens (Human), UniProt Q9NWZ3)
Experiment: IRAK4 kinase activity, IMAP fluorescence polarization assay
Format: biochemical
Details: 100 μM ATP; read-out: IRAK4 IC50
Let's look at some molecules and their measured IC50.
Write down the value, and be sure its unit follows.

Look over these answered cases.
[
  {
    "molecule": "O=c1[nH]c(N2CCN(c3cccc(C(F)(F)F)c3)CC2)nc(N[C@@H]2CCCNC2)c1-c1nc2ccccc2s1",
    "tested-target": "IRAK4 (Homo sapiens (Human), UniProt Q9NWZ3)",
    "recorded-metric": "IC50",
    "result": "42 nM"
  },
  {
    "molecule": "CO[C@H]1CN(c2nc(N[C@@H]3CCCNC3)c(-c3ccc4ccccc4n3)c(=O)[nH]2)C[C@@H]1O",
    "tested-target": "IRAK4 (Homo sapiens (Human), UniProt Q9NWZ3)",
    "recorded-metric": "IC50",
    "result": "40 nM"
  },
  {
    "molecule": "CC1(C)CN(c2nc(N[C@@H]3CCCNC3)c(-c3nc4ccccc4s3)c(=O)[nH]2)CCO1",
    "tested-target": "IRAK4 (Homo sapiens (Human), UniProt Q9NWZ3)",
    "recorded-metric": "IC50",
    "result": "145 nM"
  },
  {
    "molecule": "O=c1[nH]c(N2CCCC2c2ccncc2)nc(N[C@@H]2CCCNC2)c1-c1ccc2ccccc2n1 (stereo partly drawn)",
    "tested-target": "IRAK4 (Homo sapiens (Human), UniProt Q9NWZ3)",
    "recorded-metric": "IC50",
    "result": "3180 nM"
  },
  {
    "molecule": "O=c1[nH]c(N2CCN(c3cccnc3)CC2)nc(N[C@@H]2CCCNC2)c1-c1nc2ccccc2s1",
    "tested-target": "IRAK4 (Homo sapiens (Human), UniProt Q9NWZ3)",
    "recorded-metric": "IC50",
    "result": "6 nM"
  }
]

# IC50 (molecule: Cc1nsc(C2CCN(c3nc(N[C@@H]4CCCNC4)c(-c4ccc5ccccc5n4)c(=O)[nH]3)CC2)n1 ) is 138 nM

Form field IC50, entry CC(C)(O)C1CCN(c2nc(N[C@@H]3CCCNC3)c(-c3ccc4ccccc4n3)c(=O)[nH]2)C1 (stereo partly drawn) : 42 nM

The molecule identified as CC1(O)CCN(c2nc(N[C@@H]3CCCNC3)c(-c3ccc4ccccc4n3)c(=O)[nH]2)C1 (stereo partly drawn) registered its IC50 at 31 nM

Lookup result for O=c1[nH]c(N2CCn3cc(C(F)(F)F)nc3C2)nc(N[C@@H]2CCCNC2)c1-c1nc2ccccc2s1 ; measured IC50: 113 nM

IC50 reading for CC1(O)CN(c2nc(N[C@@H]3CCCNC3)c(-c3ccc4ccccc4n3)c(=O)[nH]2)C1 : 3150 nM

Data provenance is patent US9221809B2.
